# Tested on: velvetleaf (Abutilon theophrasti, ABUTH)
# assayRemarks: Pre-emerge test, greenhouse herbicide activity screening
# Type: in vivo
# settings: 250 g ai/ha; rating scale 0-100, 14 days after application
valueType: Pre-emerge herbicidal activity, phytotoxicity rating ABUTH
I only need the number, thanks.

Illustrative cases are given below, each with its answer.
molecule	reportedValue
CCCCOC(=O)C(Cl)Cc1c(OC)c(Cl)cc(F)c1-n1c(=O)cc(C(F)(F)F)n(C)c1=O (single isomer, unassigned)	90
CCOC(=O)C(C)(Cl)Cc1c(OC)c(Cl)cc(F)c1-n1c(=O)cc(C(F)(F)F)n(C)c1=O (stereo not shown)	100
CCCOC(=O)C(C)(Cl)Cc1c(OC)c(Cl)cc(F)c1-n1c(=O)cc(C(F)(F)F)n(C)c1=O (stereo not shown)	100

Check the records and state Pre-emerge herbicidal activity, phytotoxicity rating ABUTH for COc1c(Cl)cc(F)c(-n2c(=O)cc(C(F)(F)F)n(C)c2=O)c1CC(Cl)C(=O)OC(C)(C)C (stereo not shown)
70

Check the records and state Pre-emerge herbicidal activity, phytotoxicity rating ABUTH for CCCCCCOC(=O)C(C)(Cl)Cc1c(OC)c(Cl)cc(F)c1-n1c(=O)cc(C(F)(F)F)n(C)c1=O (stereo not shown)
100

Check the records and state Pre-emerge herbicidal activity, phytotoxicity rating ABUTH for COCCOC(=O)C(Cl)Cc1c(OC)c(Cl)cc(F)c1-n1c(=O)cc(C(F)(F)F)n(C)c1=O (stereo not shown)
100

Check the records and state Pre-emerge herbicidal activity, phytotoxicity rating ABUTH for COC(=O)C(Cl)Cc1c(OC)c(Cl)cc(F)c1-n1c(=O)cc(C(F)(F)F)n(C)c1=O (stereo not shown)
100
